Reported glycan array binding signal (z-score) values are given for each entry in this list.
# TGT: Gal(b1-3)GlcNAc(b1-2)Man(a1-3)[Gal(b1-3)GlcNAc(b1-2)Man(a1-6)]Man(b1-4)GlcNAc(b1-4)[Fuc(a1-6)]GlcNAc
# ASSAY OVERVIEW: glycan array binding signal (z-score within array); higher = stronger binding
# RUN PARAMETERS: glycan notation: IUPAC condensed, linker removed
Many of the other results were omitted from the sample, so the strongest signals are more common in it than they were.
ASSAY METRIC: glycan array binding signal (z-score)

* SSP1 (Sclerotinia sclerotiorum), XP_001584968 (protein) MGSSHHHHHHSSGLVPRGSHMSLLTTELACTSAPDQVLHLFFQDGQNILEARSPDGGNVWTTQDTIIAKDGDYNGSSMTCYYVDKDANFDNQPSIHLLYMNKDKQLTEKVKRMKGDNPIWEDAKVPDEVRKGPEQYSKLTSGSFNQGTGWNPNGSQWAYFSASKDGKMGIVEIRRTPKDPWHTETILEEKWGDELPGTALACVIGNGKIRVFLQHHDYSIILYENQNNTWHDRGTFIPKDKVQATTPLACTMTKDGSVHLFYVSKSNKIIHCTDGKKEEELINFFPGSKLGATSVENKITLFFRNLNPVNEVGTLENENGSWKHGTTVIPA | 5.12
* Clone646PsrP (Streptococcus pneumoniae) (protein) MDHHHHHHHHASENLYFQGAPAINASLNIAKSETKVYTGEGVDSVYRVPIYYKLKVTNDGSKLTFTYTVTYVNPKTNDLGNISSMRPGYSIYNSGTSTQTMLTLGSDLGKPSGVKNYITDKNGRQVLSYNTSTMTTQGSGYTWGNGAQMNGFFAKKGYGLTSSWTVPITGTDTSFTFTPYAARTDRIGINYFNGGGKVVESSTTSQSLSQSKSLSVSAS | -0.421
